Target: T1, human PVRIG on FlpinCHO-PVRIG cells (human, UniProt Q6DKI7 41-326)
T1 construct: whole, on cells
T1 sequence (looked up): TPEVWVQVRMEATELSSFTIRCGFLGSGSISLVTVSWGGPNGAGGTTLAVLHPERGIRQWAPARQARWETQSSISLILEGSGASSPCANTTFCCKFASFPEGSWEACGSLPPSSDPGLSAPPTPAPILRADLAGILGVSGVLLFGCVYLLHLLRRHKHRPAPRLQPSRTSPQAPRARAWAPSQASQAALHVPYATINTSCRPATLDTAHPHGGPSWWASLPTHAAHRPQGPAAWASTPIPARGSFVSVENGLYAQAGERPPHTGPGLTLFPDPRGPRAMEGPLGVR
Assay: FACS, FlpinCHO-PVRIG cells; AUC of MFI curve relative to COM701-hIgG1
Entries and their % AUC to COM701-hIgG1 values follow.
Answer with a number only, understood to be in %.

**Query** # % AUC to COM701-hIgG1 lookup, item PVRIG-A113 (Fc fusion, Alpaca VHH joined to human IgG1 Fc (VHH-hinge-CH2-CH3); not shown: human IgG1 hinge-CH2-CH3) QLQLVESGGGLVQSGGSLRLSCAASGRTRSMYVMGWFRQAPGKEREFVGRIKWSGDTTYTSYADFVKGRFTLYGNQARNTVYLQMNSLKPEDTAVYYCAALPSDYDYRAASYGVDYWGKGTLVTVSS
**Result** 42.4

**Query** What value of measured % AUC to COM701-hIgG1 is listed for PVRIG-A117 (Fc fusion, Alpaca VHH joined to human IgG1 Fc (VHH-hinge-CH2-CH3); not shown: human IgG1 hinge-CH2-CH3) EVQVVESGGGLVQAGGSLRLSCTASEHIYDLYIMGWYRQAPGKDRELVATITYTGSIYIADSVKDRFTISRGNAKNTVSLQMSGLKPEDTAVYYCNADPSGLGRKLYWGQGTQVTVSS ?
**Result** 133
